System: OVCAR-3
Assay: OVCAR3 CTG assay
Format: cell-based
Settings: Homo sapiens, OVCAR-3, 144 h; CellTiter-Glo, 6 days incubation
pIC50: −log10 of the molar value.
ENDPOINT LABEL: pIC50

>>> value_measured("[2H]C([2H])([2H])N1CCCCOCC2(C(F)(F)F)CCN(CC2)c2cc(NS(=O)(=O)CCO)ccc2C(=O)Nc2cc(C)nc1n2")
"5.00 to 6.00"
>>> value_measured("Cc1cc2nc(n1)NCCOC[C@@H]1CCC[C@H](COc3cc(NS(=O)(=O)CCO)ccc3C(=O)N2)C1 (relative stereo)")
"5.00 to 6.00"
>>> value_measured("Cc1cc2nc(n1)N(C)CC(C)COCC1(C(F)(F)F)CCN(CC1)c1cc(NS(=O)(=O)CCO)ccc1C(=O)N2 (stereo not shown)")
"6.00 to 7.00"
>>> value_measured("C/C1=C/CNc2cccc(n2)NC(=O)c2ccc(NS(=O)(=O)CCO)cc2N2CCC(C(F)(F)F)(CC2)COC1")
"6.00 to 7.00"
>>> value_measured("CCS(=O)(=O)Nc1cc2c(cn1)C(=O)Nc1cccc(n1)N(C)CCCCCC1(C(F)(F)F)CCN2CC1")
"6.00 to 7.00"
>>> value_measured("O=C1NCCOCC2(C(F)(F)F)CCN(CC2)c2cc(NS(=O)(=O)CCO)ccc2C(=O)Nc2cccc1n2")
"6.00 to 7.00"
>>> value_measured("Cc1cc2nc(n1)NCCCOCC1(C)CCN(CC1)c1cc(S(=O)(=O)NC(C)(C)C)ccc1C(=O)N2")
"> 8.00"

====

Consider the following compounds and their measured IC50 readings.
System: OVCAR-3
Experiment: OVCAR3 CTG assay
Type: cell-based
Conditions: Homo sapiens, OVCAR-3, 144 h; CellTiter-Glo, 6 days incubation
ENDPOINT LABEL: IC50

>>> value_measured("CN1CC(F)(F)COCC2(C(F)(F)F)CCN(CC2)c2cc(NS(=O)(=O)CCO)ccc2C(=O)Nc2cccc1n2")
"100 to 1000 nM"
>>> value_measured("CN1CCCOCC2(C(F)(F)F)CCN(CC2)c2cc(NS(=O)(=O)CCO)ccc2C(=O)Nc2cc(Cl)cc1n2")
"100 to 1000 nM"
>>> value_measured("CN1CCCOCC2(C(F)(F)F)CCN(CC2)c2cc(NS(=O)(=O)CCO)ccc2C(=O)Nc2ccc(C#N)c1n2")
"10 to 100 nM"
>>> value_measured("[2H]C([2H])([2H])N1CCCOCC2(C(F)(F)F)CCN(CC2)c2cc(NS(=O)(=O)CCO)ccc2C(=O)Nc2cc(C)cc1n2")
"100 to 1000 nM"
>>> value_measured("O=C1Nc2cccc(n2)NCCC/C=C/C2(C(F)(F)F)CCN(CC2)c2cc(NS(=O)(=O)CCO)ccc21")
"10 to 100 nM"
>>> value_measured("C[C@@H]1CNc2nc(ccc2F)NC(=O)c2ccc(NS(=O)(=O)CCO)cc2N2CCC(C(F)(F)F)(CC2)COC1")
"10 to 100 nM"
>>> value_measured("CC12CCN(CC1)c1cc(NS(=O)(=O)CCO)ccc1C(=O)Nc1ccc(=O)n(n1)CCCCOC2")
"100 to 1000 nM"

====

Consider the following molecules and their measured pIC50 readings.
Tested on: OVCAR-3
Test: OVCAR3 CTG assay
Assay type: cell-based
Details: Homo sapiens, OVCAR-3, 144 h; CellTiter-Glo, 6 days incubation
pIC50: −log10 of the molar value.
ENDPOINT LABEL: pIC50

>>> value_measured("Cc1cc2nc(n1)N(C)CCCOCC1(C)CCN(CC1)c1cc(NS(=O)(=O)CCO)ccc1C(=O)N2")
"6.00 to 7.00"
>>> value_measured("C[C@@H]1CCCC2(C(F)(F)F)CCN(CC2)c2cc(NS(=O)(=O)CCO)ccc2C(=O)Nc2cccc(n2)NC1")
"7.00 to 8.00"
>>> value_measured("CN1CCC/C=C/C2(C(F)(F)F)CCN(CC2)c2cc(NS(=O)(=O)CCO)ccc2C(=O)Nc2ccnc1n2")
"7.00 to 8.00"
>>> value_measured("COC1CNc2nc(C)cc(n2)NC(=O)c2ccc(NS(=O)(=O)CCO)cc2N2CCC(C)(CC2)COC1 (stereo not shown)")
"7.00 to 8.00"
>>> value_measured("C[C@@H]1CCCC2(C(F)(F)F)CCN(CC2)c2cc(NS(=O)(=O)CCO)c(F)cc2C(=O)Nc2cccc(n2)NC1")
"> 8.00"
>>> value_measured("Cc1cc2nc(n1)N1CCC(F)(F)[C@@H](CCCC3(C)CCN(CC3)c3cc(NS(=O)(=O)CCO)ccc3C(=O)N2)C1")
"7.00 to 8.00"
>>> value_measured("Cc1cc2nc(n1)OCCCOCC1(C)CCN(CC1)c1cc(NS(=O)(=O)CCO)ccc1C(=O)N2")
"7.00 to 8.00"
